# key: entry, value: % inhibition n = 3
Biological target: T1, full length human DLL4 (human, UniProt Q9NR61 27-685)
T1 construct: whole, on cells; also called native DLL4 expressed in HEK293 cells
T1 sequence (Q9NR61 27-685): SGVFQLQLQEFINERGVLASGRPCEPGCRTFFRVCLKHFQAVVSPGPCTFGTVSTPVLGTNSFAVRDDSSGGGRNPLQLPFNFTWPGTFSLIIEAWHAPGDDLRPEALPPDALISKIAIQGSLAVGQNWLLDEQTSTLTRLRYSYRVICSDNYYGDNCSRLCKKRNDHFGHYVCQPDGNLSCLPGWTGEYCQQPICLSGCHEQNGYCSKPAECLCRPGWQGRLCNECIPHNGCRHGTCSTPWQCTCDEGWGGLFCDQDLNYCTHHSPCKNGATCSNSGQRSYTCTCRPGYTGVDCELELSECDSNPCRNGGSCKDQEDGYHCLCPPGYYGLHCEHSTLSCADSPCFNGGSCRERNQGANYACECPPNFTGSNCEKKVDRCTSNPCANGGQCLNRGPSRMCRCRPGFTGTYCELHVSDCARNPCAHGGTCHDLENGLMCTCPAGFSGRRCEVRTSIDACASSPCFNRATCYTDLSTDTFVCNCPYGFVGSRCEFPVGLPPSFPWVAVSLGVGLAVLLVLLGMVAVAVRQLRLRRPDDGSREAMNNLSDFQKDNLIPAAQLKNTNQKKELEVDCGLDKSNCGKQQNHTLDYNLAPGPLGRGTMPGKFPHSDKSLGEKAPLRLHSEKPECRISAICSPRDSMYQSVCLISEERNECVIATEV
Test: FMAT competition, supernatant vs Alexa-647 human Notch1/Fc, 293T cells with human DLL4
Provide the measurement as a number trailed by its unit.

Some solved entries appear below for comparison.
{"binder": "9G8 (antibody, IgG4, V domains shown, Fully human; used for IgG4 rows and where no isotype is printed; also called 9G8 IgG4) VH: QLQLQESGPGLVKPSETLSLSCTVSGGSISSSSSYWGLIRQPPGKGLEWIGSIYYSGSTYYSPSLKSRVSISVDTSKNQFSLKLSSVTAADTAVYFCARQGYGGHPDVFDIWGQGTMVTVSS VL: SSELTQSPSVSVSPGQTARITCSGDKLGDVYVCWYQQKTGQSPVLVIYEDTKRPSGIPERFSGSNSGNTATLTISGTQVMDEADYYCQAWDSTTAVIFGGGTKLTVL", "% inhibition n = 3": "143%"}
{"binder": "1D4 (antibody, IgG4, V domains shown, Fully human XenoMouse antibody; also used where no isotype is printed) VH: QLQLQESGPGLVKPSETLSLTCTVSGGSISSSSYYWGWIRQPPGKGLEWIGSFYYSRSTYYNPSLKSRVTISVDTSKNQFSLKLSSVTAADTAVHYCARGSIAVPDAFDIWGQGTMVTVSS VL: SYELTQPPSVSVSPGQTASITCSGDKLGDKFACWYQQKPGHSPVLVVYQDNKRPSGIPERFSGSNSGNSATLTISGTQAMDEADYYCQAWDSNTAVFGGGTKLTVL", "% inhibition n = 3": "146%"}

Let us move to another entry and its % inhibition n = 3.
Need % inhibition n = 3, item 12A1 (antibody, IgG4, V domains shown, Fully human; also used where no isotype is printed) VH: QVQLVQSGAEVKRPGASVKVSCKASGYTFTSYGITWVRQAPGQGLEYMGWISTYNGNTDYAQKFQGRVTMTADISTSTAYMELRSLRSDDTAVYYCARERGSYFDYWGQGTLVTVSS VL: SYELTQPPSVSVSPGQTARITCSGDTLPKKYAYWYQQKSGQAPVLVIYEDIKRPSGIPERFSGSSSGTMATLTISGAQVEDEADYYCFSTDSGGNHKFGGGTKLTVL
144%
